Origin of measurements: patent US7658917

# TGT: natural β-amyloid peptide β-AP1-40 (human)
# Sequence (peptide, as listed by the source): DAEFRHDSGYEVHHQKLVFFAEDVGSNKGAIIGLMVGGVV
# ASSAY_REMARKS: cell-based or functional assay
* marks the point of attachment. Cholyl = C[C@H](CCC(=O)*)[C@H]1CC[C@H]2[C@@H]3[C@H](O)C[C@@H]4C[C@H](O)CC[C@]4(C)[C@H]3C[C@H](O)[C@]12C
PARAMETER: Fold Increase in Lag Time; nucleation assay; 33 mole % (fold)
Give the quantity in fold, number only.

BINDER: Cholyl-HDSGY-NH2 (SMILES C[C@H](CCC(=O)N[C@@H](Cc1c[nH]cn1)C(=O)N[C@@H](CC(=O)O)C(=O)N[C@@H](CO)C(=O)NCC(=O)N[C@@H](Cc1ccc(O)cc1)C(N)=O)[C@H]1CC[C@H]2[C@@H]3[C@H](O)C[C@@H]4C[C@H](O)CC[C@]4(C)[C@H]3C[C@H](O)[C@]12C) [cholyl-Aβ6-10-amide]
MEASURED_NUMBER: 1.1
//
BINDER: Cholyl-HQKLVFF-OH (SMILES CC(C)C[C@H](NC(=O)[C@H](CCCCN)NC(=O)[C@H](CCC(N)=O)NC(=O)[C@H](Cc1c[nH]cn1)NC(=O)CC[C@@H](C)[C@H]1CC[C@H]2[C@@H]3[C@H](O)C[C@@H]4C[C@H](O)CC[C@]4(C)[C@H]3C[C@H](O)[C@]12C)C(=O)N[C@H](C(=O)N[C@@H](Cc1ccccc1)C(=O)N[C@@H](Cc1ccccc1)C(=O)O)C(C)C) [cholyl-Aβ14-20]
MEASURED_NUMBER: 2

// moving on: another record for Fold Increase in Lag Time; nucleation assay; 33 mole %
Briefly, Fold Increase in Lag Time; nucleation assay; 33 mole % measured for Cholyl-HDSGYEVHH-NH2 (SMILES CC(C)[C@H](NC(=O)[C@H](CCC(=O)O)NC(=O)[C@H](Cc1ccc(O)cc1)NC(=O)CNC(=O)[C@H](CO)NC(=O)[C@H](CC(=O)O)NC(=O)[C@H](Cc1c[nH]cn1)NC(=O)CC[C@@H](C)[C@H]1CC[C@H]2[C@@H]3[C@H](O)C[C@@H]4C[C@H](O)CC[C@]4(C)[C@H]3C[C@H](O)[C@]12C)C(=O)N[C@@H](Cc1c[nH]cn1)C(=O)N[C@@H](Cc1c[nH]cn1)C(N)=O) [cholyl-Aβ6-14-amide] : 1
